Numbers sourced from PubChem BioAssay AID1159580.

# normalized growth values compiled below
assay: chemical genetic growth profiling, strain panel (AID 1159580);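 also: tested at 20 µM; growth read once vehicle control cultures reached saturation at 30 °C; 1 = growth at the plate median or of vehicle wells; lower values mean less growth of the strain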; settings: S. cerevisiae deletion strains, growth OD, locus YOR316C, strain cot1, stronger effect = lower value
Screen size: about 5,500 compounds; about 2,000 (36%) were called active. Roughly 18% stayed inconclusive and do not appear here. This is one part of the list.
Just the number, please.

Solved entries (count: 5):
- C1CCN2C[C@@H]3C[C@H](CN4CCCC[C@@H]34)[C@H]2C1: 1
- C=CC(C1=CC(=O)C(OC)=CC1=O)c1ccc(O)cc1 (stereo unspecified): 0.982
- CC(=O)O[C@H]1C[C@@H](OC(C)=O)C(C)(C)C2C[C@@H](OC(C)=O)[C@@]3(C)C4=CC(=O)O[C@@H](c5ccoc5)[C@]4(C)CCC3[C@]21C (stereo partly specified): 1
- CO[C@H]1/C=C/O[C@@]2(C)Oc3c(C)c(O)c4c(O)c(c(/C=N/N5CCN(C)CC5)c(O)c4c3C2=O)NC(=O)/C(C)=C\C=C\C(C)[C@H](O)[C@@H](C)[C@@H](O)[C@@H](C)[C@@H](OC(C)=O)[C@@H]1C (stereo partly specified): 1.01
- CCN(CC)CCNC(=O)c1cc(S(C)(=O)=O)ccc1OC: 1.01

Please turn your attention to the following entry.
QUERY: Output measured normalized growth for this item: OC[C@@H]1CCCN2CCCC[C@H]12
RESULT: 1.01
